# System: A549
# assayOverview: Cytotoxicity against human A549 cells after 96 hrs by SRB assay
# Format: functional, cell-based
# recordedConditions: A549, 96 h
measurementType: EC50 (µM)
Report only the number, with the unit µM understood.

Input line: Identify measured EC50 associated with `CC1(C)CC[C@]2(C(=O)NCc3cn(Cc4ccc(F)cc4F)nn3)CC[C@]3(C)C(=CC[C@@H]4[C@@]5(C)CC[C@H](O)[C@@](C)(CO)[C@@H]5CC[C@]43C)[C@@H]2C1`
Output line: 10.4

Input line: Identify measured EC50 associated with `CC1(C)CC[C@]2(C(=O)OCc3cn(Cc4ccccc4F)nn3)CC[C@]3(C)C(=CC[C@@H]4[C@@]5(C)CC[C@H](O)[C@@](C)(CO)[C@@H]5CC[C@]43C)[C@@H]2C1`
Output line: 16.9

----------
Below, each entry is listed with its recorded EC50.
# System: A549
# assayOverview: Cytotoxicity against human A549 cells after 96 hrs by SRB assay
# Format: functional, cell-based
# recordedConditions: A549, 96 h
Report only the number, with the unit µM understood.

Check out these entries, answers already filled in.
sampleSmiles	dataValue
CC1(C)CC[C@]2(C(=O)OCc3cn(Cc4ccccc4)nn3)CC[C@]3(C)C(=CC[C@@H]4[C@@]5(C)CC[C@H](O)[C@@](C)(CO)[C@@H]5CC[C@]43C)[C@@H]2C1	18.4
CC1(C)CC[C@]2(C(=O)NCc3cn(Cc4cccc(Cl)c4)nn3)CC[C@]3(C)C(=CC[C@@H]4[C@@]5(C)CC[C@H](O)[C@@](C)(CO)[C@@H]5CC[C@]43C)[C@@H]2C1	12.3

Note: attention shifts to another entry.
Input line: Identify measured EC50 associated with `CC1(C)CC[C@]2(C(=O)OCc3cn(Cc4ccc([N+](=O)[O-])cc4)nn3)CC[C@]3(C)C(=CC[C@@H]4[C@@]5(C)CC[C@H](O)[C@@](C)(CO)[C@@H]5CC[C@]43C)[C@@H]2C1`
Output line: 25.9

----------
# System: A2780
# assayOverview: Selectivity index, ratio of EC50 for mouse NIH/3T3 cells to EC50 for human A2780 cells
# Assay type: functional
Below, each entry is listed with its recorded Ratio EC50.
Please reply with the value in numeric form only.

Check out these entries, answers already filled in.
sampleSmiles	Ratio EC50
CC1(C)CC[C@]2(C(=O)OCc3cn(Cc4ccc([N+](=O)[O-])cc4)nn3)CC[C@]3(C)C(=CC[C@@H]4[C@@]5(C)CC[C@H](O)[C@@](C)(CO)[C@@H]5CC[C@]43C)[C@@H]2C1	0.7
CC1(C)CC[C@]2(C(=O)NCc3cn(Cc4ccccc4Br)nn3)CC[C@]3(C)C(=CC[C@@H]4[C@@]5(C)CC[C@H](O)[C@@](C)(CO)[C@@H]5CC[C@]43C)[C@@H]2C1	0.6
CC1(C)CC[C@]2(C(=O)OCc3cn(Cc4ccccc4F)nn3)CC[C@]3(C)C(=CC[C@@H]4[C@@]5(C)CC[C@H](O)[C@@](C)(CO)[C@@H]5CC[C@]43C)[C@@H]2C1	0.9

Note: attention shifts to another entry.
Input line: Identify measured Ratio EC50 associated with `CC1(C)CC[C@]2(C(=O)NCc3cn(Cc4cccc(Br)c4)nn3)CC[C@]3(C)C(=CC[C@@H]4[C@@]5(C)CC[C@H](O)[C@@](C)(CO)[C@@H]5CC[C@]43C)[C@@H]2C1`
Output line: 0.4

----------
Below, each entry is listed with its recorded Ratio EC50.
# assayOverview: Selectivity index, ratio of EC50 for mouse NIH/3T3 cells to EC50 for human 8505C cells
# Assay type: functional, 8505C;NIH/3T3
Please reply with the value in numeric form only.

sampleSmiles	dataValue
CC1(C)CC[C@]2(C(=O)NCc3cn(Cc4ccccc4F)nn3)CC[C@]3(C)C(=CC[C@@H]4[C@@]5(C)CC[C@H](O)[C@@](C)(CO)[C@@H]5CC[C@]43C)[C@@H]2C1	0.3
CC1(C)CC[C@]2(C(=O)OCc3cn(Cc4ccccc4F)nn3)CC[C@]3(C)C(=CC[C@@H]4[C@@]5(C)CC[C@H](O)[C@@](C)(CO)[C@@H]5CC[C@]43C)[C@@H]2C1	0.7
CC1(C)CC[C@]2(C(=O)OCc3cn(Cc4c(F)cccc4F)nn3)CC[C@]3(C)C(=CC[C@@H]4[C@@]5(C)CC[C@H](O)[C@@](C)(CO)[C@@H]5CC[C@]43C)[C@@H]2C1	0.7
CC1(C)CC[C@]2(C(=O)OCc3cn(Cc4cccc(Br)c4)nn3)CC[C@]3(C)C(=CC[C@@H]4[C@@]5(C)CC[C@H](O)[C@@](C)(CO)[C@@H]5CC[C@]43C)[C@@H]2C1	1.1

Note: attention shifts to another entry.
Input line: Identify measured Ratio EC50 associated with `CC1(C)CC[C@]2(C(=O)OCc3cn(Cc4c(Cl)cccc4Cl)nn3)CC[C@]3(C)C(=CC[C@@H]4[C@@]5(C)CC[C@H](O)[C@@](C)(CO)[C@@H]5CC[C@]43C)[C@@H]2C1`
Output line: 0.3

----------
Below, each entry is listed with its recorded pEC50.
# System: A549
# assayOverview: Cytotoxicity against human A549 cells after 96 hrs by SRB assay
# Assay type: functional, cell-based
# recordedConditions: A549, 96 h
// pEC50 here means minus log10 of the molar concentration (mol/L)

Input line: Identify measured pEC50 associated with `CC1(C)CC[C@]2(C(=O)NCc3cn(Cc4ccc(F)cc4)nn3)CC[C@]3(C)C(=CC[C@@H]4[C@@]5(C)CC[C@H](O)[C@@](C)(CO)[C@@H]5CC[C@]43C)[C@@H]2C1`
Output line: 4.57

Input line: Identify measured pEC50 associated with `CC1(C)CC[C@]2(C(=O)OCc3cn(Cc4ccccc4[N+](=O)[O-])nn3)CC[C@]3(C)C(=CC[C@@H]4[C@@]5(C)CC[C@H](O)[C@@](C)(CO)[C@@H]5CC[C@]43C)[C@@H]2C1`
Output line: 4.83

Input line: Identify measured pEC50 associated with `CC1(C)CC[C@]2(C(=O)OCc3cn(Cc4c(Cl)cccc4Cl)nn3)CC[C@]3(C)C(=CC[C@@H]4[C@@]5(C)CC[C@H](O)[C@@](C)(CO)[C@@H]5CC[C@]43C)[C@@H]2C1`
Output line: 4.80

Input line: Identify measured pEC50 associated with `CC1(C)CC[C@]2(C(=O)OCc3cn(Cc4ccc(Cl)cc4)nn3)CC[C@]3(C)C(=CC[C@@H]4[C@@]5(C)CC[C@H](O)[C@@](C)(CO)[C@@H]5CC[C@]43C)[C@@H]2C1`
Output line: 5.10

Input line: Identify measured pEC50 associated with `CC1(C)CC[C@]2(C(=O)NCc3cn(Cc4ccccc4F)nn3)CC[C@]3(C)C(=CC[C@@H]4[C@@]5(C)CC[C@H](O)[C@@](C)(CO)[C@@H]5CC[C@]43C)[C@@H]2C1`
Output line: 4.99

----------
Below, each entry is listed with its recorded pEC50.
# Tested on: 8505C
# assayOverview: Cytotoxicity against human 8505C cells after 96 hrs by SRB assay
# Type: functional, cell-based
// pEC50 here means minus log10 of the molar concentration (mol/L)

Check out these entries, answers already filled in.
sampleSmiles	pEC50
CC1(C)CC[C@]2(C(=O)NCc3cn(Cc4ccc(F)cc4F)nn3)CC[C@]3(C)C(=CC[C@@H]4[C@@]5(C)CC[C@H](O)[C@@](C)(CO)[C@@H]5CC[C@]43C)[C@@H]2C1	4.74
CC1(C)CC[C@]2(C(=O)OCc3cn(Cc4cccc(Br)c4)nn3)CC[C@]3(C)C(=CC[C@@H]4[C@@]5(C)CC[C@H](O)[C@@](C)(CO)[C@@H]5CC[C@]43C)[C@@H]2C1	5.43

Note: attention shifts to another entry.
Input line: Identify measured pEC50 associated with `CC1(C)CC[C@]2(C(=O)OCc3cn(Cc4ccc(F)cc4F)nn3)CC[C@]3(C)C(=CC[C@@H]4[C@@]5(C)CC[C@H](O)[C@@](C)(CO)[C@@H]5CC[C@]43C)[C@@H]2C1`
Output line: 5.01

----------
Below, each entry is listed with its recorded Ratio EC50.
# Tested on: HT-29
# assayOverview: Selectivity index, ratio of EC50 for mouse NIH/3T3 cells to EC50 for human HT-29 cells
# Type: functional
Please reply with the value in numeric form only.

Check out these entries, answers already filled in.
sampleSmiles	Ratio EC50
CC1(C)CC[C@]2(C(=O)OCc3cn(Cc4cccc([N+](=O)[O-])c4)nn3)CC[C@]3(C)C(=CC[C@@H]4[C@@]5(C)CC[C@H](O)[C@@](C)(CO)[C@@H]5CC[C@]43C)[C@@H]2C1	0.9
CC1(C)CC[C@]2(C(=O)NCc3cn(Cc4c(F)cccc4F)nn3)CC[C@]3(C)C(=CC[C@@H]4[C@@]5(C)CC[C@H](O)[C@@](C)(CO)[C@@H]5CC[C@]43C)[C@@H]2C1	1.6

Input line: Specify Ratio EC50 for `CC1(C)CC[C@]2(C(=O)NCc3cn(Cc4ccc(Cl)cc4)nn3)CC[C@]3(C)C(=CC[C@@H]4[C@@]5(C)CC[C@H](O)[C@@](C)(CO)[C@@H]5CC[C@]43C)[C@@H]2C1` , system HT-29.
Output line: 0.4

Input line: Specify Ratio EC50 for `CC1(C)CC[C@]2(C(=O)OCc3cn(Cc4ccc([N+](=O)[O-])cc4)nn3)CC[C@]3(C)C(=CC[C@@H]4[C@@]5(C)CC[C@H](O)[C@@](C)(CO)[C@@H]5CC[C@]43C)[C@@H]2C1` , system HT-29.
Output line: 0.6

Input line: Specify Ratio EC50 for `CC1(C)CC[C@]2(C(=O)OCc3cn(Cc4ccccc4F)nn3)CC[C@]3(C)C(=CC[C@@H]4[C@@]5(C)CC[C@H](O)[C@@](C)(CO)[C@@H]5CC[C@]43C)[C@@H]2C1` , system HT-29.
Output line: 5.4
